biological target: Sodium channel protein type 2 subunit alpha (Rattus norvegicus, UniProt P04775); test: Inhibition of veratridine-induced Na+ influx in chinese hamster ovary cells expressing alpha subunit of rat brain type voltage-gated sodium channel type 2; type: functional
Sequence (P04775 whole entry): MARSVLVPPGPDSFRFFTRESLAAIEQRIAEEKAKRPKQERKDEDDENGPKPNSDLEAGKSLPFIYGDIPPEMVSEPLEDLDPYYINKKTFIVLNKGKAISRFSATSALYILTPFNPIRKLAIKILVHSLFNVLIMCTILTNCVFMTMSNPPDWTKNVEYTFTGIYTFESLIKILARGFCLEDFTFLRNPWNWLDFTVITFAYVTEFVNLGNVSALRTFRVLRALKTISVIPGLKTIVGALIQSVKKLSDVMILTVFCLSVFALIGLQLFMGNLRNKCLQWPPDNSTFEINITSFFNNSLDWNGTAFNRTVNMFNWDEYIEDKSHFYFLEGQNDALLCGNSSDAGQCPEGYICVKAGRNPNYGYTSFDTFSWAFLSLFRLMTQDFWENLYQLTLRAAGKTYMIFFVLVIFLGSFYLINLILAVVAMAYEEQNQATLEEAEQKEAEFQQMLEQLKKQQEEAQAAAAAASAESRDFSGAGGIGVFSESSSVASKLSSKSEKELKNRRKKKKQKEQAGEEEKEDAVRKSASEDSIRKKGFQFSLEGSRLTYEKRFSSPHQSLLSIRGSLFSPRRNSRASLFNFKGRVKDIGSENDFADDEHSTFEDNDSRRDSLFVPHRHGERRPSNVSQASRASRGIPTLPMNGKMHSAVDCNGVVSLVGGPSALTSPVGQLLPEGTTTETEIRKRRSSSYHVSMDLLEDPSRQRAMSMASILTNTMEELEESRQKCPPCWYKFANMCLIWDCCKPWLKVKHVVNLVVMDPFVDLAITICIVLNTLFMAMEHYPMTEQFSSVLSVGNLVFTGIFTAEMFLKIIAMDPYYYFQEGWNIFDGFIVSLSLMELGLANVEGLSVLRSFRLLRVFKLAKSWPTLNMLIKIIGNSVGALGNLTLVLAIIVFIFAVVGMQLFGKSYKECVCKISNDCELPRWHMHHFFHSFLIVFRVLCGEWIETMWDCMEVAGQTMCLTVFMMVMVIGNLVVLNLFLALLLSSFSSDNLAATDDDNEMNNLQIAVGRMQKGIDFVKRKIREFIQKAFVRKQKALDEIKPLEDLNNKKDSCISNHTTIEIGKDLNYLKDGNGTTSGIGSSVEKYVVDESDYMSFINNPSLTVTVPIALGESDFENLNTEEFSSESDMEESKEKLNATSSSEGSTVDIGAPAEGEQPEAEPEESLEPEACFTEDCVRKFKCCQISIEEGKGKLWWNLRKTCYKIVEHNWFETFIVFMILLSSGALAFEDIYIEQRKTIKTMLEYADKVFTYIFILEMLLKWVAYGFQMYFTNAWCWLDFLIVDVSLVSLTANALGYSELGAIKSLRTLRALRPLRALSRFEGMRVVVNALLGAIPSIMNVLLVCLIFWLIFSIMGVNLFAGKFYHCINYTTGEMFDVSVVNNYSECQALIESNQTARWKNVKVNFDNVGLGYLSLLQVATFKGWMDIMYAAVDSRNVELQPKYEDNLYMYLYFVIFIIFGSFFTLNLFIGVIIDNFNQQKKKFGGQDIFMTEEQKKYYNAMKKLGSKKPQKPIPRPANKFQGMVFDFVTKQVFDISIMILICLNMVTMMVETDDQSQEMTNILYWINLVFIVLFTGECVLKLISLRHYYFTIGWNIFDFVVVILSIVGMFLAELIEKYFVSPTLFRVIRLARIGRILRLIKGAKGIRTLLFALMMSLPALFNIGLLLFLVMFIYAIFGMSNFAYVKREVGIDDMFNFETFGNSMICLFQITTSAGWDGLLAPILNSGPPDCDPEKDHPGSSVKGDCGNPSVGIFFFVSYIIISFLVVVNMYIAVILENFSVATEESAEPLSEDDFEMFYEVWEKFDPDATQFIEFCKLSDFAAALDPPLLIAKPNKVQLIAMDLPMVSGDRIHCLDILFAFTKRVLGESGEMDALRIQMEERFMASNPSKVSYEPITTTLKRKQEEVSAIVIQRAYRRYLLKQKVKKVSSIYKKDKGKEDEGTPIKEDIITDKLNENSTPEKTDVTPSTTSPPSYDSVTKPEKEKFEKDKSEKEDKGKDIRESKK
log10 of IC50 by entry:
All values: log10 IC50 [µM].

Worked cases, answers included:
compound="Cc1cccc(C)c1NC(=O)CN1CCN(CCCC(c2ccc(F)cc2)c2ccc(F)cc2)CC1 [LIDOFLAZINE]" system="Sodium channel protein type 2 subunit alpha (Rattus norvegicus, UniProt P04775)" result=0.38
compound="CC1CCCC(C)N1CCCNC(=O)C(c1ccccc1Cl)c1ccccc1Cl (stereo not given)" system="Sodium channel protein type 2 subunit alpha (Rattus norvegicus, UniProt P04775)" result=0.54
compound="COc1ccc(C(C(=O)NCCCN2C(C)CCCC2C)c2ccc(OC)c3ccccc23)c2ccccc12 (stereo not given)" system="Sodium channel protein type 2 subunit alpha (Rattus norvegicus, UniProt P04775)" result=1.11
compound="COc1ccc(C(C(=O)NCCCN2C(C)CCCC2C)c2ccc(OC)cc2)cc1 (stereo not given)" system="Sodium channel protein type 2 subunit alpha (Rattus norvegicus, UniProt P04775)" result=0.49
compound="CC1CCCC(C)N1CCCN1C(=O)CC(c2ccccc2)(c2ccccc2)C1=O (stereo not given)" system="Sodium channel protein type 2 subunit alpha (Rattus norvegicus, UniProt P04775)" result=0.56

State, in one line, measured log10 of IC50 of CC1CCCC(C)N1CCCNC(=O)C(c1ccccc1)c1ccccc1 (stereo not given)
0.43

Given CC1CCCC(C)N1CCCNC(=O)C1c2ccccc2-c2ccccc21 (stereo not given) , respond with its log10 of IC50.
1.46

# return recorded log10 of IC50 for entry CC1CCCC(C)N1CCCNC(=O)C(c1ccc(Cl)cc1)c1ccc(Cl)cc1 (stereo not given)
0.65

Give log10 of IC50 for the following compound: CC1CCCC(C)N1CCCNC(=O)C1(c2ccccc2)CCCCC1 (stereo not given)
0.63

====

target: Sodium channel alpha subunits; brain (Types I, II, III) (Rattus norvegicus, UniProt P04775+P04774+P08104); experiment: Inhibition of [3H]- batrachotoxin binding to sodium channel in rat neocortical membrane; type: cell membranes
Below is a list of entries, each paired with its recorded Ki value.
Include the unit right after the number.

compound="CC1CCCC(C)N1CCCNC(=O)C(c1ccc(F)cc1)c1ccc(F)cc1 (stereo not drawn)" result="130 nM"

Provide only the value of recorded Ki for CC1CCCC(C)N1CCCN1C(=O)CC(c2ccccc2)(c2ccccc2)C1=O (stereo not drawn)
1000 nM

Given the compound COc1ccc(C(C(=O)NCCCN2C(C)CCCC2C)c2ccc(OC)cc2)cc1 (stereo not drawn) , write its reported Ki.
1000 nM

====

target: Sodium channel protein type 2 subunit alpha (Rattus norvegicus, UniProt P04775); assay: Inhibition of veratridine-induced Na+ influx in chinese hamster ovary cells expressing alpha subunit of rat brain type voltage-gated sodium channel type 2; type: functional
Listed here: items and their measured IC50.
The reply should be a number in µM, with the unit left off.

Tell us which IC50 value is on record for CC1CCCC(C)N1CCCNC(=O)C1c2ccccc2Oc2ccccc21 (stereo not drawn)
13

Quote IC50 reported for CC1CCCC(C)N1CCCNC(=O)C(c1ccc(F)cc1)c1ccc(F)cc1 (stereo not drawn) please.
5.8
